IC50 tested on Histone deacetylase 8 (Homo sapiens): recorded values
Sequence (Q9BY41 whole entry): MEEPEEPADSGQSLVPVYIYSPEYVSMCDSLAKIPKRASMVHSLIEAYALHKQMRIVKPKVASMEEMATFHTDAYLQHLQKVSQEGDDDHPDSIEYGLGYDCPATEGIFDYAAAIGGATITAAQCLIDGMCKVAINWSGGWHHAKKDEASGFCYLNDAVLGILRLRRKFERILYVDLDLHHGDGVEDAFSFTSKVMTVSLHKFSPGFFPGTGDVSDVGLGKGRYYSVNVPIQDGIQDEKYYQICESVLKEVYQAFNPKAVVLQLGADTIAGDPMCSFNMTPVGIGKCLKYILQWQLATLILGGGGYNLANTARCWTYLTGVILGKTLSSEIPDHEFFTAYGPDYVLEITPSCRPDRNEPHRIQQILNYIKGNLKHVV

[
  {
    "substanceSmiles": "COc1ccc(Cn2ccc3ccc(C(=O)Nc4ccccc4N)cc32)cc1",
    "IC50, µM": 150
  },
  {
    "substanceSmiles": "COc1ccc(Cn2ccc3ccc(NC(=O)c4ccccc4O)cc32)cc1",
    "IC50, µM": 360
  },
  {
    "substanceSmiles": "COc1ccc(Cn2ccc3ccc(C(=O)c4cc(C)on4)cc32)cc1",
    "IC50, µM": 200
  },
  {
    "substanceSmiles": "COc1ccc(Cn2ccc3ccc(NC(=O)c4ccccc4SC)cc32)cc1",
    "IC50, µM": 340
  }
]

* * *

# systemUnderTest: UniProtKB Q9BY41
pIC50: −log10 of the molar value.
// pIC50 lookup, one value per entry

[
  {
    "molecule": "COc1ccc(Cn2ccc3ccc(-c4noc(=S)[nH]4)cc32)cc1",
    "relationOperator": "=",
    "pIC50": 3.48
  },
  {
    "molecule": "COc1ccc(Cn2ccc3ccc(-c4noc(C(F)(F)F)n4)cc32)cc1",
    "relationOperator": "<",
    "pIC50": 3.00
  },
  {
    "molecule": "COc1ccc(Cn2ccc3ccc(C(=O)N/N=C\\c4ccccc4O)cc32)cc1",
    "relationOperator": "<",
    "pIC50": 3.00
  },
  {
    "molecule": "COc1ccc(Cn2ccc3ccc(NC(=O)c4ccccc4N)cc32)cc1",
    "relationOperator": "=",
    "pIC50": 3.89
  },
  {
    "molecule": "COc1ccc(Cn2ccc3ccc(-c4noc(=O)[nH]4)cc32)cc1",
    "relationOperator": "=",
    "pIC50": 3.85
  },
  {
    "molecule": "COc1ccc(Cn2ccc3ccc(C(=O)Nc4ccccc4SC)cc32)cc1",
    "relationOperator": "=",
    "pIC50": 3.44
  },
  {
    "molecule": "CCC(=O)c1ccc2ccn(Cc3ccc(OC)cc3)c2c1",
    "relationOperator": "=",
    "pIC50": 3.92
  },
  {
    "molecule": "NC(Cc1ccc(Cl)cc1Cl)C(=O)N1Cc2ccccc2C1 (stereo unspecified)",
    "relationOperator": "=",
    "pIC50": 5.10
  },
  {
    "molecule": "COc1ccc(Cn2ccc3ccc(/C(N)=N/O)cc32)cc1",
    "relationOperator": "=",
    "pIC50": 3.47
  },
  {
    "molecule": "CCC(=O)Cc1ccc2ccn(Cc3ccc(OC)cc3)c2c1",
    "relationOperator": "=",
    "pIC50": 3.62
  },
  {
    "molecule": "COc1ccc(Cn2ccc3ccc(C(=O)Nc4ccccc4O)cc32)cc1",
    "relationOperator": "=",
    "pIC50": 3.66
  }
]

All values here come from ChEMBL document CHEMBL5576062.
